Entries and their growth
- Tested on: T-47D breast
- Measurement Protocol: NCI-60 one-dose screen, 48 h (100 = growth as untreated, 0 = no growth, -100 = all killed)
- Test Parameters: 10 µM unless noted
- Method: Growth inhibition of the T-47D human tumor cell line is measured as a screen for anti-cancer activity. Cells are grown in 96 well plates and exposed to the test compound for 48 hours. Compounds are tested at a single concentration, which is 10^-5 M for most compounds. The reported endpoint is percent growth (GI% or GIPRCNT), where numbers from 0 - 100% represent growth inhibition, and numbers from -100% - 0 represent cell death. For example, a value of 40 represents 60% growth inhibition. […]
Compounds without any hit were thinned out: in the full panel of roughly 83,000, 20% have a hit.
The reply should contain only the number, in %.

Examples from the recorded data:
>  <Compound>
CC1(C)C=Cc2c(ccc3c2[N+]([O-])=C2C3=C[C@@]34NC(=O)[C@]5(CCCN5C3=O)C[C@@H]4C2(C)C)O1

>  <growth [%]>
53.2

$$$$
>  <Compound>
CC1=CC(=Nc2ccc(N(CCCl)CCCl)cc2)C=C(C)C1=O

>  <growth [%]>
-17.7

$$$$

Problem: # get_value(readout='growth', item= O=Cc1cn(Cc2ccccc2)c2ccccc12 )
Solution: 41.4

Problem: Next compound up: C[C@]12CCC(=O)C[C@@H]1CC[C@@H]1[C@@H]2CC[C@]2(C)[C@@H](OC(=O)N(CCCl)N=O)CC[C@@H]12
Solution: 34

Problem: Next compound up: C[N+]1(CC#CC[N+]2(C)CCCC2)CCCC1
Solution: 108

Problem: Next compound up: C[C@]12CC[C@H]3[C@@H](C[C@@H]4SC(Nc5ccccc5)=N[C@@]45C/C(=N/O)CC[C@]35C)[C@@H]1CCC2=O
Solution: 64.4

Problem: Next compound up: COC(=O)C1=CO[C@@H](C)[C@@H]2CN3CCc4c([nH]c5cc(OC)ccc45)[C@@H]3C[C@H]12
Solution: 93.2

Problem: Next compound up: CC[PH+](CC)CC.O=COC1OC([S-])C(OC=O)C(OC=O)C1OC=O.[Au+] (centres undefined)
Solution: -82.7

Problem: Next compound up: O=NN(c1ccccc1)c1ccccc1
Solution: 107

* * *

- System: K-562 leukemia
- Measurement Protocol: NCI-60 one-dose screen, 48 h
- Test Parameters: 10 µM unless noted
The panel holds about 83,000 compounds, 20% with a hit somewhere; the sample as a whole holds those more often. The source made the active and inactive calls. How the source made its calls: active means growth percent below 10; inactive means the rest.
Response enum: active, inactive

Consider the following illustrative entries.
>  <Compound>
CC[C@H](C)[C@H](NC(=O)[C@H]1CCCCN1C)C(=O)N(C)[C@H](C[C@@H](OC(C)=O)c1nc(C(=O)N[C@@H](Cc2ccccc2)C[C@H](C)C(=O)O)cs1)C(C)C

>  <Target>
K-562 leukemia

>  <Label>
active

$$$$
>  <Compound>
Cc1cc[c-]cc1.Fc1c[c-]c(-c2ccccn2)c(F)c1.[Pt+2].c1ccc([PH+](c2ccccc2)c2ccccn2)cc1

>  <Target>
K-562 leukemia

>  <Label>
inactive

$$$$
>  <Compound>
CC/C(Cc1ccccc1)=C(\c1ccc(OCCN2CCCC2)cc1)c1ccc(OC(=O)NCc2ccccc2)cc1

>  <Target>
K-562 leukemia

>  <Label>
active

$$$$
>  <Compound>
C#COc1cccc(Nc2ncnc3cc(NC(=O)CF)ccc23)c1

>  <Target>
K-562 leukemia

>  <Label>
active

$$$$
>  <Compound>
Cc1ccc(N2CCN(CCC#N)CC2)cc1

>  <Target>
K-562 leukemia

>  <Label>
inactive

$$$$

Next up:
Problem: Hey, what did the test say about CCCCOCCOP(=O)(OCCOCCCC)OCCOCCCC ?
Solution: inactive
